# SYSTEM TESTED: cloned human h-NK1 receptors expressed in CHO cells (Homo sapiens)
# Construct: expressed in transfected cells; host or cells: CHO cells
# EXPERIMENTAL PROTOCOL: Binding experiment for h-NK1 receptors ([3H]-Substance P displacement)
# TEST CONTEXT: read-out: h-NK1 pIC50 (converted)
EXPERIMENTAL ENDPOINT: IC50

{"MOLECULE": "Cc1ccc(O)c(CN2CCC(N3CCN(C4CCN(C(=O)c5cc(C(F)(F)F)cc(C(F)(F)F)c5)C(Cc5ccccc5)C4)CC3)CC2)n1 (stereo not shown) [Compound 8]", "REPORTED RESULT": "0.631 nM"}
{"MOLECULE": "O=C(c1cc(C(F)(F)F)cc(C(F)(F)F)c1)N1CCC(N2CCN(C3CCN(Cc4nc5ccccc5[nH]4)CC3)CC2)CC1Cc1ccccc1 (stereo not shown) [Compound 7]", "REPORTED RESULT": "7.94 nM"}
{"MOLECULE": "O=C(c1ccccn1)N1CCC(N2CCN([C@H]3CCN(C(=O)c4cc(C(F)(F)F)cc(C(F)(F)F)c4)[C@H](Cc4ccccc4)C3)CC2)CC1 [Compound 79]", "REPORTED RESULT": "6.31 nM"}
{"MOLECULE": "Cc1cccc(C)c1NC(=O)CN1CCC(N2CCN([C@H]3CCN(C(=O)c4cc(C(F)(F)F)cc(C(F)(F)F)c4)[C@H](Cc4ccccc4)C3)CC2)CC1 [Compound 97]", "REPORTED RESULT": "0.316 nM"}

---

Here the recorded IC50 is given for each entry.
# SYSTEM TESTED: cloned human h-NK1 receptors expressed in CHO cells (Homo sapiens, UniProt P25103)
# Construct: expressed in transfected cells; host or cells: CHO cells
# Sequence (P25103 whole entry): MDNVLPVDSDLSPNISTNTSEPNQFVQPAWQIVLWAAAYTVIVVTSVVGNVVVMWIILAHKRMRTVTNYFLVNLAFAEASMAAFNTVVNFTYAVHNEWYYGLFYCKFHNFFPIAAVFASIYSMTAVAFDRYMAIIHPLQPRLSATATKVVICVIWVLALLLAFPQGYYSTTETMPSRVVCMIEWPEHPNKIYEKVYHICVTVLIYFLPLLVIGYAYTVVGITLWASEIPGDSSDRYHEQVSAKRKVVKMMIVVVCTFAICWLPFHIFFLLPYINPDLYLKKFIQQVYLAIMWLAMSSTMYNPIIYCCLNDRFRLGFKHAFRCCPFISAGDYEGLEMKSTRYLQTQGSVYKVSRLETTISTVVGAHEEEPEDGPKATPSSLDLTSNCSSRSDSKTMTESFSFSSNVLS
# EXPERIMENTAL PROTOCOL: Binding experiment for h-NK1 receptors ([3H]-Substance P displacement)
# TEST CONTEXT: read-out: h-NK1 pIC50 (converted)
EXPERIMENTAL ENDPOINT: IC50 (nM)

{"QUERY SMILES": "O=C(c1ccccc1O)N1CCC(N2CCN([C@H]3CCN(C(=O)c4cc(C(F)(F)F)cc(C(F)(F)F)c4)[C@H](Cc4ccccc4)C3)CC2)CC1", "EXPERIMENTAL ENDPOINT": "IC50", "READOUT UNITS": "nM", "REPORTED RESULT": 1}
{"QUERY SMILES": "COc1cc(CC(=O)N2CCC(N3CCN([C@H]4CCN(C(=O)c5cc(C(F)(F)F)cc(C(F)(F)F)c5)[C@H](Cc5ccccc5)C4)CC3)CC2)cc(OC)c1OC", "EXPERIMENTAL ENDPOINT": "IC50", "READOUT UNITS": "nM", "REPORTED RESULT": 1}
{"QUERY SMILES": "O=C(C1CCC1)N1CCC(N2CCN([C@H]3CCN(C(=O)c4cc(C(F)(F)F)cc(C(F)(F)F)c4)[C@H](Cc4ccccc4)C3)CC2)CC1", "EXPERIMENTAL ENDPOINT": "IC50", "READOUT UNITS": "nM", "REPORTED RESULT": 1}
{"QUERY SMILES": "Cc1nnsc1C(=O)N1CCC(N2CCN([C@@H]3CCN(C(=O)c4cc(C(F)(F)F)cc(C(F)(F)F)c4)[C@@H](Cc4ccccc4)C3)CC2)CC1", "EXPERIMENTAL ENDPOINT": "IC50", "READOUT UNITS": "nM", "REPORTED RESULT": 7.94}
{"QUERY SMILES": "CC(C)(C)OC(=O)N1Cc2ccccc2C[C@H]1C(=O)N1CCC(N2CCN([C@H]3CCN(C(=O)c4cc(C(F)(F)F)cc(C(F)(F)F)c4)[C@H](Cc4ccccc4)C3)CC2)CC1", "EXPERIMENTAL ENDPOINT": "IC50", "READOUT UNITS": "nM", "REPORTED RESULT": 31.6}

---

# SYSTEM TESTED: cloned human h-NK1 receptors expressed in CHO cells (Homo sapiens)
# Construct: expressed in transfected cells; host or cells: CHO cells
# EXPERIMENTAL PROTOCOL: Binding experiment for h-NK1 receptors ([3H]-Substance P displacement)
# TEST CONTEXT: read-out: h-NK1 pIC50 (converted)
In this section, each of the compounds is paired with its reported IC50.

{"COMPOUND": "Cc1nnsc1C(=O)N1CCC(N2CCN([C@H]3CCN(C(=O)c4cc(C(F)(F)F)cc(C(F)(F)F)c4)[C@H](Cc4ccccc4)C3)CC2)CC1 [Compound 142]", "IC50 (nM)": 1.26}
{"COMPOUND": "Cc1cc(C)cc(C(=O)N2CCC(N3CCN(C4CCN(C(=O)c5cc(C(F)(F)F)cc(C(F)(F)F)c5)C(Cc5ccccc5)C4)CC3)CC2Cc2ccccc2)c1 (single isomer, unassigned) [Compound 10]", "IC50 (nM)": 50.1}
{"COMPOUND": "O=C(c1cc(C(F)(F)F)cc(C(F)(F)F)c1)N1CCC(N2CCN(C3CCN(Cc4cc(C(F)(F)F)cc(C(F)(F)F)c4)CC3)CC2)CC1Cc1ccccc1 (stereo not drawn)", "IC50 (nM)": 39.8}

---

The entries below come with measured IC50 values attached.
# SYSTEM TESTED: cloned human h-NK3 receptors expressed in CHO cells (Homo sapiens, UniProt P29371)
# Construct: expressed in transfected cells; host or cells: CHO cells
# Sequence (P29371 1-465): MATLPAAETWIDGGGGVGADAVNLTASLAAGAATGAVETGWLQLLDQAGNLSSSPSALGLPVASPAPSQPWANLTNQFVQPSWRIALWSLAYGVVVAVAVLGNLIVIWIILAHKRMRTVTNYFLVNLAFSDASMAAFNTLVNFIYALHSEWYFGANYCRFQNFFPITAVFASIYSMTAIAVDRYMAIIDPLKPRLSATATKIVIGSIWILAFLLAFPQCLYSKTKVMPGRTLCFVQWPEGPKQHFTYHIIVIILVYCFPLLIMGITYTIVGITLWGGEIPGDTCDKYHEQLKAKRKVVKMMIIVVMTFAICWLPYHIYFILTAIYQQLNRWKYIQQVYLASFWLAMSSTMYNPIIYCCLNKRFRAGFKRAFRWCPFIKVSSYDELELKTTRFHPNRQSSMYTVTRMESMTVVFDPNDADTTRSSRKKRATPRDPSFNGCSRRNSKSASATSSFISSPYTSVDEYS
# EXPERIMENTAL PROTOCOL: Binding experiment for h-NK3 receptors ([3H]-SR-142801 displacement)
# TEST CONTEXT: [3H]-SR-142801, CHO cells; read-out: h-NK3 pIC50 (converted)

{"MOLECULE": "O=C(c1cc(C(F)(F)F)cc(C(F)(F)F)c1)N1CCC(N2CCN(C3CCNCC3)CC2)CC1Cc1ccccc1 (stereo not drawn)", "IC50": "6310 nM"}
{"MOLECULE": "O=C(c1cc(C(F)(F)F)cc(C(F)(F)F)c1)N1CC[C@H](N2CCN(C3CCN(c4ncccn4)CC3)CC2)C[C@H]1Cc1ccccc1", "IC50": "158 nM"}
{"MOLECULE": "O=C(c1cccnc1)N1CCC(N2CCN([C@H]3CCN(C(=O)c4cc(C(F)(F)F)cc(C(F)(F)F)c4)[C@H](Cc4ccccc4)C3)CC2)CC1", "IC50": "251 nM"}
{"MOLECULE": "Cn1cccc1CN1CCC(N2CCN(C3CCN(C(=O)c4cc(C(F)(F)F)cc(C(F)(F)F)c4)C(Cc4ccccc4)C3)CC2)CC1 (stereo not drawn)", "IC50": "501 nM"}
{"MOLECULE": "O=C(c1ccccn1)N1CCC(N2CCN([C@H]3CCN(C(=O)c4cc(C(F)(F)F)cc(C(F)(F)F)c4)[C@H](Cc4ccccc4)C3)CC2)CC1", "IC50": "398 nM"}
{"MOLECULE": "Cc1nnsc1C(=O)N1CCC(N2CCN([C@H]3CCN(C(=O)c4cc(C(F)(F)F)cc(C(F)(F)F)c4)[C@@H](Cc4ccccc4)C3)CC2)CC1", "IC50": "5010 nM"}
{"MOLECULE": "O=C(c1ccccc1)N1CCC(N2CCN(C3CCN(C(=O)c4cc(C(F)(F)F)cc(C(F)(F)F)c4)C(Cc4ccccc4)C3)CC2)CC1 (stereo not drawn)", "IC50": "251 nM"}
{"MOLECULE": "O=C(c1cccc(Cl)c1)N1CCC(N2CCN([C@H]3CCN(C(=O)c4cc(C(F)(F)F)cc(C(F)(F)F)c4)[C@H](Cc4ccccc4)C3)CC2)CC1", "IC50": "158 nM"}
{"MOLECULE": "Cc1ccc(O)c(C(=O)N2CCC(N3CCN([C@H]4CCN(C(=O)c5cc(C(F)(F)F)cc(C(F)(F)F)c5)[C@H](Cc5ccccc5)C4)CC3)CC2)c1", "IC50": "200 nM"}
{"MOLECULE": "O=C(C(c1ccccc1)N1CCOCC1)N1CCC(N2CCN([C@H]3CCN(C(=O)c4cc(C(F)(F)F)cc(C(F)(F)F)c4)[C@H](Cc4ccccc4)C3)CC2)CC1 (stereo partly drawn)", "IC50": "158 nM"}
{"MOLECULE": "CC(C)(C)OC(=O)N1Cc2ccccc2C[C@H]1C(=O)N1CCC(N2CCN([C@H]3CCN(C(=O)c4cc(C(F)(F)F)cc(C(F)(F)F)c4)[C@H](Cc4ccccc4)C3)CC2)CC1", "IC50": "126 nM"}
{"MOLECULE": "CC(C)(C)OC(=O)N1CCCCC1C(=O)N1CCC(N2CCN([C@H]3CCN(C(=O)c4cc(C(F)(F)F)cc(C(F)(F)F)c4)[C@H](Cc4ccccc4)C3)CC2)CC1 (stereo partly drawn)", "IC50": "631 nM"}
